Here the recorded cytotoxicity at 70.5 h is given for each entry.
- experimental.details: Human HepG2 cell viability assay in 384 well format
- Assay type: toxicity, cell-based
- Design: dose 125 nL, time 70.5 hour; concentration not given beside the values
- particulars: HepG2 cells, read-out: Inhibition

Worked set:
INSERT INTO assay_data (compound, result_value) VALUES
  ('O=C(Cn1nnc(-c2ccc(F)cc2)n1)N1CCOCC(O)C1 (stereo unspecified)', '-1.8%'),
  ('COc1cc(N2CC[C@@H](O)[C@@H]2Cc2ccncc2)ncn1', '-10%'),
  ('CN(c1ncccc1CNCc1ncc[nH]1)C1CCCCC1', '-13.1%'),
  ('Cc1n[nH]c(C)c1CNC(=O)N(Cc1ccccc1)CC(C)(C)O', '-3.61%'),
  ('CCC(=O)N1CCC(c2ncc3c(n2)CCNC3)CC1', '-4.58%');

Fill in the blank: the reported cytotoxicity at 70.5 h of Cn1cc(CCCNC(=O)NC2CCN(CC(F)(F)F)C2=O)cn1 (stereo unspecified) is ____. -3.21%

Fill in the blank: the reported cytotoxicity at 70.5 h of CC(C)c1cc(N2CCC(NS(C)(=O)=O)C2)nc(C(C)C)n1 (stereo unspecified) is ____. -10.9%

Fill in the blank: the reported cytotoxicity at 70.5 h of CC(c1ccon1)N(C)C(=O)C1CCN(C(=O)C2CCC2)CC1 (stereo unspecified) is ____. 25.3%

Fill in the blank: the reported cytotoxicity at 70.5 h of CCCn1cnnc1CNC(=O)C1COc2cc(OC)ccc2C1 (stereo unspecified) is ____. 18.3%

Fill in the blank: the reported cytotoxicity at 70.5 h of CN(C)CCOCC1CN(C(=O)c2ccnnc2)Cc2ccnn2C1 (stereo unspecified) is ____. -14%

Fill in the blank: the reported cytotoxicity at 70.5 h of `c1ccc(CCCN2CC[C@H](c3nnc(-c4cccnc4)o3)C2)cc1` is ____. -10.6%
